These measurements were taken from paper PMC5466822.

biological target: p97 (Homo sapiens, UniProt P55072); test: malachite green ATPase assay, 9-point dose-response; assay type: biochemical
Sequence (P55072 2-806): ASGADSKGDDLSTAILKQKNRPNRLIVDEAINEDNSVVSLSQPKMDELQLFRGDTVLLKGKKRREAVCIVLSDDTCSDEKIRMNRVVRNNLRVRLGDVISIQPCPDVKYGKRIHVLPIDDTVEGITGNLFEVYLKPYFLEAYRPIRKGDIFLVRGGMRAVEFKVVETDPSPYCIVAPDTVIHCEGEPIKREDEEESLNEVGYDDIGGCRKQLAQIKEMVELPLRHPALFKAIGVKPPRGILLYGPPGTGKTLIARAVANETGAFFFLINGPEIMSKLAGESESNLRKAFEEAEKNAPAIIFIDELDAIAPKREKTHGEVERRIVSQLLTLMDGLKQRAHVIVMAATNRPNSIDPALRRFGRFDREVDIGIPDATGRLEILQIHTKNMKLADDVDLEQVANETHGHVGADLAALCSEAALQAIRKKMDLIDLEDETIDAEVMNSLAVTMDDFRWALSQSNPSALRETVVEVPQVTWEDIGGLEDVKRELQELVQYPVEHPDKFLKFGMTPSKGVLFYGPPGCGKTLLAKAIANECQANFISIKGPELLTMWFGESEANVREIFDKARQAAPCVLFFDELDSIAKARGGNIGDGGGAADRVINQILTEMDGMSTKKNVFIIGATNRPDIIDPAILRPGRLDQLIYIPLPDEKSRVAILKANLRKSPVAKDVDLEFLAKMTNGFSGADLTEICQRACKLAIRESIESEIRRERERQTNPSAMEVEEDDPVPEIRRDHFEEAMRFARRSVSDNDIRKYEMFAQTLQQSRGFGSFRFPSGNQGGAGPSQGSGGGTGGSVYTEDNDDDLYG
MEASURED METRIC: IC50

> print(dat)
                                   compound  measured.metric   result
1  C[C@H]1CCC/C=C/C(=O)c2c(O)cc(O)cc2CC(=O)O1 [compound 2, 10(11)-dehydrocurvularin]             IC50  15.3 µM
